Origin of values: patent US8148531B2

- system_under_test: Aurora-A (Homo sapiens)
- Sequence (O14965 whole entry): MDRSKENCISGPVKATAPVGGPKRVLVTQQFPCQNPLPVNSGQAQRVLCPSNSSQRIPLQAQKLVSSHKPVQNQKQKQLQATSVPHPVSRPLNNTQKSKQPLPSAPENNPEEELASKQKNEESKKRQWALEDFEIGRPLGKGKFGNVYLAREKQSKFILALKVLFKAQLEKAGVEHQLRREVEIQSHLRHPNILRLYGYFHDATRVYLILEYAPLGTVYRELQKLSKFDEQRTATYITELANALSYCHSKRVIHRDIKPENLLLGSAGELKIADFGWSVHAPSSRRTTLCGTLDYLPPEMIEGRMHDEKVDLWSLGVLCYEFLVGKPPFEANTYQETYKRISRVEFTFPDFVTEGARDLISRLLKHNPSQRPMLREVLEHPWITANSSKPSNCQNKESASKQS
- test_protocol: Aurora-A enzyme assay (MBP-coated Flashplate, γ-33P-ATP)
- Assay type: biochemical
- measurement_parameters: IC50 range class; read-out: Inhibitor Activity vs Aurora-A
readout_label: IC50

The examples below pair each entry with its known result.
COc1cc2c(Oc3ccc(NC(=O)c4ccc(C(F)(F)F)cc4)cc3)ccnc2cc1OCC[C@H](N)C(=O)O [Example 54]
< 2 µM
COc1cc2c(Oc3ccc(NC(=O)c4ccccc4)cc3F)ccnc2cc1OCC[C@H](N)C(=O)O [Example 129]
< 2 µM
COc1cc2c(Oc3ccc(NC(=O)C4CC4)cc3)ccnc2cc1OCC[C@H](N)C(=O)O [Example 60]
> 5 µM

Q: Report IC50 from Aurora-A (Homo sapiens) testing of COc1cc2c(Oc3ccc(CC(=O)Nc4ccc(F)cc4)cc3)ccnc2cc1OCC[C@H](N)C(=O)O [Example 87]
Result: > 5 µM

Q: Fill: IC50 (Aurora-A (Homo sapiens)) for this compound COc1ccc(NC(=O)Cc2ccc(Oc3ccnc4cc(OCC[C@H](N)C(=O)O)c(OC)cc34)cc2)cc1 [Example 91]
Result: 2 to 5 µM

Q: Write IC50 of COc1cc2c(Oc3ccc(NC(=O)Nc4ccc(C(F)(F)F)cc4)cc3)ccnc2cc1OCCC[C@@H](N)C(=O)O [Example 120] ; system used: Aurora-A (Homo sapiens)
Result: < 2 µM
